Where these numbers come from: patent US12291516B2

molecular target: BTK (Homo sapiens (Human), UniProt Q06187); assay: BTK inhibition assay by Reaction Biology Corporation (33P-ATP, filter-binding); format: biochemical; conditions: footnote a: from Reaction Biology Corporation
Sequence (Q06187 whole entry): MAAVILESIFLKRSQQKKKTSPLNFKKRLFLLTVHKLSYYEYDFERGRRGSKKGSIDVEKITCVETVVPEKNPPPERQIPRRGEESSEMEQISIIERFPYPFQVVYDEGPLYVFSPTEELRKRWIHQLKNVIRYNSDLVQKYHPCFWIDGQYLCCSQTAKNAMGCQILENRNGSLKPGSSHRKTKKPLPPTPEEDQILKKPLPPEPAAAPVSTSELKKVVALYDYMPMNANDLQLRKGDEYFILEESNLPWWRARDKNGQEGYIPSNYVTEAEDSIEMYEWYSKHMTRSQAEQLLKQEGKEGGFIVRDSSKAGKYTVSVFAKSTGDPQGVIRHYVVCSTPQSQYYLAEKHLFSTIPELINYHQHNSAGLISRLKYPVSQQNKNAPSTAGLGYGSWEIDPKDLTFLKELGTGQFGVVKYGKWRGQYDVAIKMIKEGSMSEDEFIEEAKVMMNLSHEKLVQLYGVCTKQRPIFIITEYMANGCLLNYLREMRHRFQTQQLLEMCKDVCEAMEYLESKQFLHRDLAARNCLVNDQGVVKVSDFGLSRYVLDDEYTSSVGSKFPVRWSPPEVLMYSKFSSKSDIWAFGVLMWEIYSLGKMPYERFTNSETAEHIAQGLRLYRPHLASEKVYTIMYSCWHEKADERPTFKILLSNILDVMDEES
pIC50: −log10 of the molar value.
observable: pIC50

See these solved cases before continuing.
smiles_string: C=CC(=O)N1CCCC[C@H]1c1nc(-c2ccc(C(=O)Nc3ccccn3)cc2)c(C(N)=O)n1N
pIC50: 7.35
//
smiles_string: CC#CC(=O)N1CCCC[C@H]1c1nc(-c2ccc(C(=O)Nc3cc(Br)ccn3)cc2)c(C(N)=O)n1N
pIC50: 7.65

1: C=CC(=O)N1CCCC[C@H]1c1nc(-c2ccc(C(=O)Nc3ccc(Cl)cn3)cc2)c(C(N)=O)n1N
2: C=CC(=O)N1CCCC[C@H]1c1nc(-c2ccc(C(=O)Nc3cc(I)ccn3)cc2)c(C(N)=O)n1N
Pick one: 1 or 2 . Which has the bigger pIC50 number? # answer = label of selected item 2
